Tested on: BT-474
test.protocol: Inhibition of colony formation in human BT-474 cells at 0.1 to 10 uM incubated for 14 days by replacing culture medium for every 2 days by crystal violet staining based assay
Type: functional, cell-based
condition.notes: dose 0.1-10 µM, time 14.0 day
The source made the active and inactive calls. No cut-off for these calls is given here.
value.type: inhibition

Use these answered entries as a reference point.
[
  {
    "molecule": "Cc1ncsc1-c1ccc([C@H](C)NC(=O)[C@@H]2C[C@@H](O)CN2C(=O)[C@@H](NC(=O)CCCCCCCCCC(=O)N2CCN(CC[C@H](NC(=O)C3(N)CCN(c4ncnc5[nH]ccc45)CC3)c3ccc(Cl)cc3)CC2)C(C)(C)C)cc1",
    "value": "Active"
  },
  {
    "molecule": "Cc1ncsc1-c1ccc(CNC(=O)[C@@H]2C[C@@H](O)CN2C(=O)[C@@H](NC(=O)CCCCCCCCCCC(=O)N2CCN(CC[C@H](NC(=O)C3(N)CCN(c4ncnc5[nH]ccc45)CC3)c3ccc(Cl)cc3)CC2)C(C)(C)C)cc1",
    "value": "Active"
  },
  {
    "molecule": "Cc1ncsc1-c1ccc(CNC(=O)[C@@H]2C[C@@H](O)CN2C(=O)[C@@H](NC(=O)CCCCCCCCCCCC(=O)N2CCN(CC[C@H](NC(=O)C3(N)CCN(c4ncnc5[nH]ccc45)CC3)c3ccc(Cl)cc3)CC2)C(C)(C)C)cc1",
    "value": "Active"
  },
  {
    "molecule": "NC1(C(=O)N[C@@H](CCN2CCN(C(=O)CCOCCOCCOCCOCCOCCCc3cccc4c3C(=O)N(C3CCC(=O)NC3=O)C4=O)CC2)c2ccc(Cl)cc2)CCN(c2ncnc3[nH]ccc23)CC1 (stereo partly specified)",
    "value": "inactive"
  },
  {
    "molecule": "NC1(C(=O)N[C@@H](CCN2CCN(C(=O)CCOCCOCCOCCOCCOCCOc3cccc4c3C(=O)N(C3CCC(=O)NC3=O)C4=O)CC2)c2ccc(Cl)cc2)CCN(c2ncnc3[nH]ccc23)CC1 (stereo partly specified)",
    "value": "inactive"
  }
]

Field: next molecule
Entry "Cc1ncsc1-c1ccc(CNC(=O)[C@@H]2C[C@@H](O)CN2C(=O)[C@@H](NC(=O)CCCCCCCCCC(=O)N2CCN(CC[C@H](NC(=O)C3(N)CCN(c4ncnc5[nH]ccc45)CC3)c3ccc(Cl)cc3)CC2)C(C)(C)C)cc1" , inhibition reported as Active

====

test.protocol: Cmax in Swiss albino mouse at 75 mg/kg, ip administered as single dose measured upto 12 hrs by LC-MS/MS analysis
Format: ADME, organism-based
Design: route intraperitoneal, dose 75 mg/kg, time <=12
condition.notes: in vivo
value.type: Cmax

Entry "Cc1ncsc1-c1ccc(CNC(=O)[C@@H]2C[C@@H](O)CN2C(=O)[C@@H](NC(=O)CCCCCCCCCCC(=O)N2CCN(CC[C@H](NC(=O)C3(N)CCN(c4ncnc5[nH]ccc45)CC3)c3ccc(Cl)cc3)CC2)C(C)(C)C)cc1" , Cmax reported as 7 µM

====

test.protocol: Protac activity at CRBN/AKT in human BT-474 cells assessed as reduction in AKT protein level at 1 to 10 uM measured after 24 hrs by Western blot analysis
condition.notes: dose 1-10 µM
Activity calls are given as the source filed them. The calls are words filed in the database; no cut-off is given here.
Field 'call' accepts active, inactive

[
  {
    "compound": "NC1(C(=O)N[C@@H](CCN2CCN(C(=O)CCCCNc3cccc4c3C(=O)N(C3CCC(=O)NC3=O)C4=O)CC2)c2ccc(Cl)cc2)CCN(c2ncnc3[nH]ccc23)CC1 (some centres not stated)",
    "answer.label": "active"
  },
  {
    "compound": "NC1(C(=O)N[C@@H](CCN2CCN(C(=O)CCNc3cccc4c3C(=O)N(C3CCC(=O)NC3=O)C4=O)CC2)c2ccc(Cl)cc2)CCN(c2ncnc3[nH]ccc23)CC1 (some centres not stated)",
    "answer.label": "inactive"
  },
  {
    "compound": "NC1(C(=O)N[C@@H](CCN2CCN(C(=O)CCCCCCNc3cccc4c3C(=O)N(C3CCC(=O)NC3=O)C4=O)CC2)c2ccc(Cl)cc2)CCN(c2ncnc3[nH]ccc23)CC1 (some centres not stated)",
    "answer.label": "inactive"
  },
  {
    "compound": "NC1(C(=O)N[C@@H](CCN2CCN(C(=O)CCCCCNc3cccc4c3C(=O)N(C3CCC(=O)NC3=O)C4=O)CC2)c2ccc(Cl)cc2)CCN(c2ncnc3[nH]ccc23)CC1 (some centres not stated)",
    "answer.label": "active"
  },
  {
    "compound": "NC1(C(=O)N[C@@H](CCN2CCN(C(=O)CCCCCCCNc3cccc4c3C(=O)N(C3CCC(=O)NC3=O)C4=O)CC2)c2ccc(Cl)cc2)CCN(c2ncnc3[nH]ccc23)CC1 (some centres not stated)",
    "answer.label": "inactive"
  }
]

Record request — test call for NC1(C(=O)N[C@@H](CCN2CCN(C(=O)CNc3cccc4c3C(=O)N(C3CCC(=O)NC3=O)C4=O)CC2)c2ccc(Cl)cc2)CCN(c2ncnc3[nH]ccc23)CC1 (some centres not stated)
inactive

Record request — test call for NC1(C(=O)N[C@@H](CCN2CCN(C(=O)CCCNc3cccc4c3C(=O)N(C3CCC(=O)NC3=O)C4=O)CC2)c2ccc(Cl)cc2)CCN(c2ncnc3[nH]ccc23)CC1 (some centres not stated)
active
